target: NET (Rattus norvegicus, UniProt Q63380); assay: biochemical; type: binding; conditions: 3 h, read-out: Ki [SE interval] NET
Sequence (Q63380 1-617): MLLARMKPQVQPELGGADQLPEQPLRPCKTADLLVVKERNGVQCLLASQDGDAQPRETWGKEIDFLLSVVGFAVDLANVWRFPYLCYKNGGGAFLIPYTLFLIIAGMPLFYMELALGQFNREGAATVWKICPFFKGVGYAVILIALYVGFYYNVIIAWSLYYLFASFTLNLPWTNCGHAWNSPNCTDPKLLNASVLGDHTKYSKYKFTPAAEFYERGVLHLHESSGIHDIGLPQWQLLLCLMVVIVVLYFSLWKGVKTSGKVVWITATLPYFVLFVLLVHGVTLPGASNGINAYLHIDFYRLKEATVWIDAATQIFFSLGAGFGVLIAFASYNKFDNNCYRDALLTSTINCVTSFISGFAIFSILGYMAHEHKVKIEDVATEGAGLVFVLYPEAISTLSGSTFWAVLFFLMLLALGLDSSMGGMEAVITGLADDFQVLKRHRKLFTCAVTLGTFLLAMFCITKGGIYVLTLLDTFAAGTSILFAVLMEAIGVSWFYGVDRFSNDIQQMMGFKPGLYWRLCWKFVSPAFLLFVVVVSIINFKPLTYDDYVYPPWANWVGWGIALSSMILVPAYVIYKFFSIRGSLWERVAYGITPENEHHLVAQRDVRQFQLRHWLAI
Readout: inhibition at 100 µM

• O=C(CSC(c1ccc(F)cc1)c1ccc(F)cc1)NCCCc1ccccc1 = < 50%
• O=C(CSC(c1ccc(Cl)cc1)c1ccc(Cl)cc1)NCCCc1ccccc1 = < 50%
• O=C(CSC(c1ccccc1)c1ccccc1)NCCCc1ccccc1 = < 50%
• O=C(CSC(c1ccc(Br)cc1)c1ccc(Br)cc1)NCCCCc1ccccc1 = < 50%
• O=C(C[S+]([O-])C(c1ccc(Br)cc1)c1ccc(Br)cc1)NCCCc1ccccc1 (centres unmarked) = < 50%
